test system: LG0703-F948-PDC complex spheroid viability; assay: Anticancer human tumor LG0703-F948-PDC patient-derived lung adenocarcinoma cell line growth inhibition [RAS]; details: second compound 0.03 µM; first compound 0.01 µM; active means viability on the fitted dose curve at most 10% of control; inactive means the rest;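 further: spheroids exposed to agents for 7 days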
The reply should be one of these categories: active, inactive

- compound: "CC(C)n1nc(-c2ccc3oc(N)nc3c2)c2c(N)ncnc21 + CCn1c(-c2cc(N3CCN(C)CC3)cnc2C(C)OC)c2c3cc(ccc31)-c1csc(n1)CC(NC(=O)C1CC1C)C(=O)N1CCCC(N1)C(=O)OCC(C)(C)C2"
  answerLabel: "active"
- compound: "C=CC(=O)Nc1cc(Nc2nccc(-c3cn(C)c4ccccc34)n2)c(OC)cc1N(C)CCN(C)C + CCn1c(-c2cc(N3CCN(C)CC3)cnc2C(C)OC)c2c3cc(ccc31)-c1csc(n1)CC(NC(=O)C1CC1C)C(=O)N1CCCC(N1)C(=O)OCC(C)(C)C2"
  answerLabel: "inactive"
- compound: "Nc1ccn(C2OC(CO)C(O)C2(F)F)c(=O)n1 (centres undefined) + CCn1c(-c2cc(N3CCN(C)CC3)cnc2C(C)OC)c2c3cc(ccc31)-c1csc(n1)CC(NC(=O)C1CC1C)C(=O)N1CCCC(N1)C(=O)OCC(C)(C)C2"
  answerLabel: "inactive"

Shifting focus to the compound that follows.
Answer briefly: the call reported for CCN1CCN(Cc2ccc(Nc3ncc(F)c(-c4cc(F)c5nc(C)n(C(C)C)c5c4)n3)nc2)CC1 + CCn1c(-c2cccnc2C(C)OC)c2c3cc(ccc31)N1CCOC(CC(NC(=O)C(C(C)C)N(C)C(=O)C3(F)CCN(C(=O)C#CC(C)(C)N(C)C)CC3)C(=O)N3CCCC(N3)C(=O)OCC(C)(C)C2)C1 in this assay.
inactive
